- Tested on: H. Influ.
- assay remarks: in vitro antibacterial activity, agar dilution (H. influ.)
- Type: cell-based
- Set-up: unit not given here
- test context: res, strain 76
- Description: *minimum inhibitory concentrations were determined by the Agardilution
Exercise: for every item that follows, state its recorded minimum inhibitory concentration.

Briefly, minimum inhibitory concentration measured for CO/N=C(\C(=O)N[C@@H]1C(=O)N2C(C(=O)O)=C(c3csc(-c4ccc(F)cc4)n3)CC[C@H]12)c1csc(N)n1 [Example 37] : .015

Briefly, minimum inhibitory concentration measured for CO/N=C(\C(=O)N[C@@H]1C(=O)N2C(C(=O)O)=C(c3csc(-c4ncc([N+](=O)[O-])s4)n3)CC[C@H]12)c1csc(N)n1 [Example 36] : < .008

Briefly, minimum inhibitory concentration measured for CO/N=C(\C(=O)N[C@@H]1C(=O)N2C(C(=O)O)=C(c3csc(-c4ccc([N+](=O)[O-])cc4)n3)CC[C@H]12)c1csc(N)n1 [Example 35] : .015

----------
- System: E. coli
- assay remarks: in vitro antibacterial activity, agar dilution (E. coli)
- Type: cell-based
- Set-up: unit not given here
- test context: strain TEM
experimental readout: minimum inhibitory concentration
Answer with a number only.

Briefly, minimum inhibitory concentration measured for CO/N=C(\C(=O)N[C@@H]1C(=O)N2C(C(=O)O)=C(c3csc(C(c4ccccc4)c4ccccn4)n3)CC[C@H]12)c1csc(N)n1 (stereo partly drawn) : 4

Briefly, minimum inhibitory concentration measured for Cn1c([N+](=O)[O-])cnc1-c1nc(C2=C(C(=O)O)N3C(=O)[C@@H](NC(=O)/C(=N\O)c4csc(N)n4)[C@H]3CC2)cs1 : 1

Briefly, minimum inhibitory concentration measured for CO/N=C(\C(=O)N[C@@H]1C(=O)N2C(C(=O)O)=C(c3csc(-c4ccccc4)n3)CC[C@H]12)c1csc(N)n1 : 1

----------
- System: Salmonella
- assay remarks: in vitro antibacterial activity, agar dilution (Salmonella)
- Type: cell-based
- Set-up: unit not given here
- test context: strain 1335
- Procedure: *minimum inhibitory concentrations were determined by the Agardilution
Exercise: for every item that follows, state its recorded minimum inhibitory concentration.
Answer with a number only.

Briefly, minimum inhibitory concentration measured for CO/N=C(\C(=O)N[C@@H]1C(=O)N2C(C(=O)O)=C(c3csc(C(c4ccccc4)c4ccccn4)n3)CC[C@H]12)c1csc(N)n1 (stereo partly shown) [Example 38] : 8

Briefly, minimum inhibitory concentration measured for CO/N=C(\C(=O)N[C@@H]1C(=O)N2C(C(=O)O)=C(c3csc(N)n3)CC[C@H]12)c1csc(N)n1 [Example 39] : 2

Briefly, minimum inhibitory concentration measured for CO/N=C(\C(=O)N[C@@H]1C(=O)N2C(C(=O)O)=C(c3csc(-c4ccc(F)cc4)n3)CC[C@H]12)c1csc(N)n1 [Example 37] : 2

----------
- System: Shig. sonn
- assay remarks: in vitro antibacterial activity, agar dilution (Shig. sonn)
- Type: cell-based
- Set-up: unit not given here
- test context: strain N9
experimental readout: minimum inhibitory concentration

Briefly, minimum inhibitory concentration measured for CO/N=C(\C(=O)N[C@@H]1C(=O)N2C(C(=O)O)=C(c3csc(-c4ccc([N+](=O)[O-])cc4)n3)CC[C@H]12)c1csc(N)n1 : .5

Briefly, minimum inhibitory concentration measured for CON=C(C(=O)NC1C(=O)N2C(C(=O)[O-])=C(c3csc(-c4ccc[n+](C)c4)n3)CCC12)c1csc(N)n1 (stereo not shown) : .06

Briefly, minimum inhibitory concentration measured for CO/N=C(\C(=O)N[C@@H]1C(=O)N2C(C(=O)O)=C(c3csc(N)n3)CC[C@H]12)c1csc(N)n1 : .25

Briefly, minimum inhibitory concentration measured for CO/N=C(\C(=O)N[C@@H]1C(=O)N2C(C(=O)O)=C(c3csc(-c4ncc([N+](=O)[O-])s4)n3)CC[C@H]12)c1csc(N)n1 : .25

----------
- Tested on: Citro
- assay remarks: in vitro antibacterial activity, agar dilution (Citro)
- Type: cell-based
- Parameters: unit not given here
- test context: strain CF17
experimental readout: minimum inhibitory concentration

Briefly, minimum inhibitory concentration measured for CON=C(C(=O)NC1C(=O)N2C(C(=O)[O-])=C(c3csc(-c4ccc[n+](C)c4)n3)CCC12)c1csc(N)n1 (stereo not shown) : .015

Briefly, minimum inhibitory concentration measured for CO/N=C(\C(=O)N[C@@H]1C(=O)N2C(C(=O)O)=C(c3csc(-c4ccco4)n3)CC[C@H]12)c1csc(N)n1 : .5

Briefly, minimum inhibitory concentration measured for Nc1nc(C2=C(C(=O)O)N3C(=O)[C@@H](NC(=O)[C@H](N)c4ccccc4)[C@H]3CC2)cs1 : > 128

Briefly, minimum inhibitory concentration measured for CO/N=C(\C(=O)N[C@@H]1C(=O)N2C(C(=O)O)=C(c3csc(-c4ncc([N+](=O)[O-])s4)n3)CC[C@H]12)c1csc(N)n1 : .06

----------
- Tested on: Klebsiella
- assay remarks: in vitro antibacterial activity, agar dilution (Klebsiella)
- Format: cell-based
- Parameters: unit not given here
- test context: strain KAE
experimental readout: minimum inhibitory concentration

Briefly, minimum inhibitory concentration measured for CO/N=C(\C(=O)N[C@@H]1C(=O)N2C(C(=O)O)=C(c3csc(-c4ccc([N+](=O)[O-])cc4)n3)CC[C@H]12)c1csc(N)n1 [Example 35] : .5

Briefly, minimum inhibitory concentration measured for CON=C(C(=O)NC1C(=O)N2C(C(=O)[O-])=C(c3csc(-c4ccc[n+](C)c4)n3)CCC12)c1csc(N)n1 (stereo not drawn) [Example 34] : .25

Briefly, minimum inhibitory concentration measured for CO/N=C(\C(=O)N[C@@H]1C(=O)N2C(C(=O)O)=C(c3csc(-c4ncc([N+](=O)[O-])s4)n3)CC[C@H]12)c1csc(N)n1 [Example 36] : .5

----------
- Tested on: E. coli
- assay remarks: in vitro antibacterial activity, agar dilution (E. coli)
- Format: cell-based
- Design: unit not given here
- test context: strain TEM
Exercise: for every item that follows, state its recorded minimum inhibitory concentration.

CO/N=C(\C(=O)N[C@@H]1C(=O)N2C(C(=O)O)=C(c3csc(-c4ncc([N+](=O)[O-])s4)n3)CC[C@H]12)c1csc(N)n1 on E. coli gives minimum inhibitory concentration = .25

CO/N=C(\C(=O)N[C@@H]1C(=O)N2C(C(=O)O)=C(c3csc(-c4ccco4)n3)CC[C@H]12)c1csc(N)n1 on E. coli gives minimum inhibitory concentration = < .008

CO/N=C(\C(=O)N[C@@H]1C(=O)N2C(C(=O)O)=C(c3csc(-c4ccc(O)c(O)c4)n3)CC[C@H]12)c1csc(N)n1 on E. coli gives minimum inhibitory concentration = .06

Where do these numbers come from? They come from patent US5179088A.
